tested on: U2OS; experiment: Incucyte cell viability with U2OS; assay type: toxicity, cell-based; conditions: human, 24 h, 10 µM, compound concentration 10 uM, replicate number 2; further: unitless GR value; below 1 slowed growth and below 0 cell loss
Measured Growth Rate values are reported for all entries that follow.
// print number alone

The following compounds have reported results that may help.
| compound | Growth Rate |
| --- | --- |
| COc1cc(C(C)C)c2c(c1)S(=O)(=O)N(COc1cc(=O)n3cccc(OCCN4CCCCC4)c3n1)C2=O | 1 |
| Cc1ncsc1-c1ccc(CNC(=O)[C@@H]2C[C@@H](O)CN2C(=O)[C@@H](NC(=O)COCCOCCOc2ccc(-c3ccc4ncnc(Nc5ccc(OCc6cccc(F)c6)c(Cl)c5)c4c3)cc2)C(C)(C)C)cc1 | 0.6 |
| C[C@]12CC[C@@H]3c4ccc(O)cc4C[C@@H](CCCCCCCCC[S+]([O-])CCCC(F)(F)C(F)(F)F)[C@H]3[C@@H]1CC[C@@H]2O (stereo partly drawn) [FULVESTRANT] | 0.65 |
| CC(C)C(=O)SCCCCCCC(=O)Nc1nc(-c2ccccc2)cs1 | 0.02 |
| Nc1ccccc1NC(=O)CCCCCC(=O)Nc1ccccc1 | 1 |
| CC(=O)Nc1ccc(OC[C@](C)(O)C(=O)Nc2ccc([N+](=O)[O-])c(C(F)(F)F)c2)cc1 | 0.76 |

// query So what does the record say about Growth Rate for CC(=O)OCCN1C(=O)c2c(C)nc3ccc(S(=O)(=O)N4CCOCC4)cc3c2C1=O ?
// result 1

// query Report Growth Rate for O=C(O)/C(S)=C/c1c[nH]c2ccc(F)cc12 please.
// result 1
